conditions: cynomolgus monkey, in vivo, sc, 40 mg/kg
In this section we review reported Liver weight values for a set of substances.
Supply the numeric figure in g, leaving out any unit text.

Below: 2 substances and their reported Liver weight.
[
  {
    "Substance": "TGATTTAATGGTTGCA [ISIS 569213] (cEt/MOE gapmer chemistry, further chemistry not given here)",
    "Attribute measured": "Liver weight",
    "Value measured": 69
  },
  {
    "Substance": "TGATTTAATGGTTGCA [ISIS 569221] (cEt/MOE gapmer chemistry, further chemistry not given here)",
    "Attribute measured": "Liver weight",
    "Value measured": 68
  }
]

Now look at this one.
Query :: May I ask what Liver weight has been recorded for ISIS 584149: antisense compound targeted to human AR (GTCAATATCAAAGCAC; 3-10-3 (S)-cEt gapmer, further chemistry not given here) ?
Result :: 60

----------
System: AR mRNA
Assay: Antisense inhibition of human AR in HuVEC cells, single concentration (electroporation, qRT-PCR RTS3559)
Assay type: cell-based
Settings: Table 22, 500 nM oligonucleotide, electroporation, approximately 24 hours, relative to untreated control
Protocol: Antisense oligonucleotides were designed targeting an AR nucleic acid and were tested for their effects on AR mRNA in vitro. The antisense oligonucleotides were tested in a series of experiments that had similar culture conditions. […] AR mRNA levels were adjusted according to total RNA content, as measured by RIBOGREEN®. […] AR mRNA levels were adjusted according to total RNA content, as measured by RIBOGREEN®. […] AR mRNA levels were adjusted according to total RNA content, as measured by RIBOGREEN®. […]
Oligonucleotides are written 5' to 3', each unit as a sugar letter and its base; * is a phosphorothioate linkage, no mark a phosphodiester; rarer units and linkages stand in square brackets, end groups in braces. Plain capitals give the bases only. k = constrained ethyl (cEt); [5mC] = 5-methylcytosine; d = 2'-deoxy (DNA)
Attribute measured: % inhibition (%)
The reply should be a number in %, with the unit left off.

[
  {
    "Substance": "584002 (k[5mC]*kT*kG*d[5mC]*dT*d[5mC]*dA*d[5mC]*d[5mC]*dA*dT*dG*d[5mC]*k[5mC]*kG*k[5mC]; antisense) [compound 584002]",
    "Value measured": 30
  },
  {
    "Substance": "583998 (k[5mC]*kA*kT*dG*d[5mC]*d[5mC]*dG*d[5mC]*d[5mC]*dA*dG*dG*dG*kT*kA*k[5mC]; antisense) [compound 583998]",
    "Value measured": 45
  }
]

Kindly review the next substance as well.
Query :: Sample 583996 (k[5mC]*kG*k[5mC]*d[5mC]*dA*dG*dG*dG*dT*dA*d[5mC]*d[5mC]*dA*k[5mC]*kA*k[5mC]; antisense) [compound 583996] — what was its % inhibition?
Result :: 33

----------
test system: KLK2 mRNA; test: KLK2 mRNA (AR target gene) in C4-2B MR cells; type: cell-based, human; details: 0.20 μM
Oligonucleotides are written 5' to 3', each unit as a sugar letter and its base; * is a phosphorothioate linkage, no mark a phosphodiester; rarer units and linkages stand in square brackets, end groups in braces. Plain capitals give the bases only. e = 2'-O-(2-methoxyethyl) (MOE); l = locked nucleic acid (LNA); k = constrained ethyl (cEt); [5mC] = 5-methylcytosine; d = 2'-deoxy (DNA)
Attribute measured: Percent inhibition of KLK2 mRNA in C4-2B MR cells

Illustrative cases are given below, each with its answer.
[
  {
    "Substance": "549434 (k[5mC]*kT*kA*dA*dA*d[5mC]*dT*dT*d[5mC]*d[5mC]*d[5mC]*dG*dT*kG*kG*k[5mC]) [compound 549434]",
    "Subject of test": "KLK2 mRNA",
    "Value measured": "27%"
  },
  {
    "Substance": "549372 (kA*kA*kG*dT*dT*dG*dT*dA*dG*dT*dA*dG*dT*k[5mC]*kG*k[5mC]) [compound 549372]",
    "Subject of test": "KLK2 mRNA",
    "Value measured": "16%"
  },
  {
    "Substance": "554221 (ACCAAGTTTCTTCAGC; sugars from the 5' end l3 d10 l3, all phosphorothioate, methylation of C not given here) [compound 554221]",
    "Subject of test": "KLK2 mRNA",
    "Value measured": "25%"
  },
  {
    "Substance": "549458 (kG*kT*kT*dG*dA*dT*dT*dT*dA*dA*dT*dG*dG*kT*kT*kG) [compound 549458]",
    "Subject of test": "KLK2 mRNA",
    "Value measured": "47%"
  }
]

Okay, now this substance:
Query :: Consider the substance 347526 (TCTTATGTTTCCGAACCGTT; sugars from the 5' end e5 d10 e5, backbone and methylation of C not given here) [compound 347526] and give its measured Percent inhibition of KLK2 mRNA in C4-2B MR cells.
Result :: 29%
